Cited source for all entries: PubChem BioAssay

# system: Fibroblast growth factor 2 (Homo sapiens)
# test-details: FGF2 binders on small-molecule microarrays, primary screen, biochemical, small-molecule microarray, 635/667 nm fluorescence (AID 1133)
# cond: small-molecule microarray binding, FGF2, fluorescence 635/667; higher = more signal
Consider the following compounds; for each one, report its composite z-score.
Answers are plain numbers.

Batch lookup, composite z-score per entry.
1. CC(C)NC(=O)[C@@]1(C)c2ccccc2C(=O)N(Cc2cc(F)cc(C(F)(F)F)c2)[C@H]1c1ccc(CO)cc1
2. CO[C@@H]1COC(=O)CC=C[C@@H](C)[C@@H]2C=C[C@H](O)[C@@H](COC(=O)[C@H](C)NC(=O)CC=C[C@H]1C)O2

Result string:
1: 1.67; 2: 1.73

List reported composite z-score for each of these compounds:
1. CC(CCC(=O)OC[C@H]1O[C@H](C#Cc2ccccc2)C=C[C@@H]1Oc1ccc(C)cc1)=NO[C@@H](C)c1cn([C@H](CO)Cc2ccccc2)nn1
2. CCCCC(=C=CC[C@H](O)c1ccccc1OCCO)C[C@H](O)COCc1ccccc1

Result string:
0.61
0.189
